Assay: Plasma CUR concentration over time after administration (bioavailability in rats)
Type: in vivo
Details: rat, 0-90 minutes after administration, read-out: maximum concentration of CUR in the plasma (Cmax)
From the text: FIG. 12 depicts the bioavailability of curcumin (CUR) impregnated in the nanoporous starch aerogels in rats as analyzed in Example 2. The plasma CUR concentration was monitored over time after administration.
measure: Cmax (nM)
Give the value, in units of nM, as a plain number.

Prompt line: Cmax lookup needed for COc1cc(/C=C/C(=O)CC(=O)/C=C/c2ccc(O)c(OC)c2)ccc1O , thanks.
Response line: 500

Ref: patent US11654119B2
